Provenance of the data: patent US20170355774A1

Recorded measurements of fold activation, T-cell proliferation, 33 nM, FcgR anchored, donor 1, one per entry
Molecular target: T1, human GITR (amino acids M1-V241, NCBI Accession #NP_004186.1) expressed on cells (human, UniProt Q9Y5U5 26-241)
T1 sequence: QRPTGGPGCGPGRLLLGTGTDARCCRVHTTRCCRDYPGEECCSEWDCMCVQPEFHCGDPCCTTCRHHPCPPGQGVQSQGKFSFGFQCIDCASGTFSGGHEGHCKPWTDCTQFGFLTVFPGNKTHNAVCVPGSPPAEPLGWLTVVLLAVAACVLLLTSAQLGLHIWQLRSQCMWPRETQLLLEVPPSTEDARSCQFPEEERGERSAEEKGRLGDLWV
Test: cell-based or functional assay
measurement.label: fold activation, T-cell proliferation, 33 nM, FcgR anchored, donor 1

[
  {
    "binder": "H4H14475P (antibody, human IgG4, V domains shown, human IgG4 (H4H)) VH: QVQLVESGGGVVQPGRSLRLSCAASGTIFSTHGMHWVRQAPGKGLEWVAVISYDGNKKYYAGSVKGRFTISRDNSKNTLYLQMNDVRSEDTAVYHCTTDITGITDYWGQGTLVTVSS VL: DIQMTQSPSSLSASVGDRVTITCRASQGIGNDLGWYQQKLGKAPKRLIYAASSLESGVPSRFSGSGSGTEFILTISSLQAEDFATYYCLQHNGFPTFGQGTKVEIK",
    "measurement": "1 fold"
  },
  {
    "binder": "H4H14528P (antibody, human IgG4, V domains shown, human IgG4 (H4H)) VH: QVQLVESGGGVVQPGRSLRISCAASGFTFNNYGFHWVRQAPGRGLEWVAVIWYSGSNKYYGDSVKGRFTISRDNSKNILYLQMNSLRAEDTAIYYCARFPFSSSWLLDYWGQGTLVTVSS VL: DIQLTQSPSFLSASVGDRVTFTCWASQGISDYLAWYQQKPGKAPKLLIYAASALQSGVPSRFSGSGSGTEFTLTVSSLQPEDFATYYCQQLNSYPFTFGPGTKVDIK",
    "measurement": "0.9 fold"
  },
  {
    "binder": "H4H14470P (antibody, human IgG4, V domains shown, human IgG4 (H4H)) VH: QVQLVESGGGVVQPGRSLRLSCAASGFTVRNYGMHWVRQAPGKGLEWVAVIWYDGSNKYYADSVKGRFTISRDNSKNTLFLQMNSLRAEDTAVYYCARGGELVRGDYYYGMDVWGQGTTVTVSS VL: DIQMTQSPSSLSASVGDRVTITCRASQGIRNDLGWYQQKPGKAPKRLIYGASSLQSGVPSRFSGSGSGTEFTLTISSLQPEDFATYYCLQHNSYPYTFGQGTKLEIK",
    "measurement": "1.8 fold"
  }
]
